system: Aspergillus clavatus; assay: Antifungal activity against Aspergillus clavatus by broth micro-dilution method; assay type: functional
Below: a set of entries, each annotated with reported MIC.

Example molecules with recorded MIC:
• O=C(COc1cc2cc(c1)Oc1cc(c([N+](=O)[O-])cc1[N+](=O)[O-])Oc1cc(OCC(=O)Nc3nc4ccccc4s3)cc(c1)Oc1cc(c([N+](=O)[O-])cc1[N+](=O)[O-])O2)Nc1nc2ccccc2s1 = 12.5 µg/mL
• O=[N+]([O-])c1cc([N+](=O)[O-])c2cc1Oc1cc(cc(OS(=O)(=O)c3cccc4cccnc34)c1)Oc1cc(c([N+](=O)[O-])cc1[N+](=O)[O-])Oc1cc(cc(OS(=O)(=O)c3cccc4cccnc34)c1)O2 = 25 µg/mL
• COC1=CC(=O)C[C@@H](C)[C@]12Oc1c(Cl)c(OC)cc(OC)c1C2=O = 10 µg/mL
• O=C(COc1cc2cc(c1)Oc1cc(c([N+](=O)[O-])cc1[N+](=O)[O-])Oc1cc(OCC(=O)Nc3nc4ccc(Cl)cc4s3)cc(c1)Oc1cc(c([N+](=O)[O-])cc1[N+](=O)[O-])O2)Nc1nc2ccc(Cl)cc2s1 = 50 µg/mL

Recorded result, O=C(COc1cc2cc(c1)Oc1cc(c([N+](=O)[O-])cc1[N+](=O)[O-])Oc1cc(OCC(=O)Nc3cccc4cccnc34)cc(c1)Oc1cc(c([N+](=O)[O-])cc1[N+](=O)[O-])O2)Nc1cccc2cccnc12 , MIC: 50 µg/mL
